B1: Gamma-crystallin C, residues 91 to 170; numbered along this chain, P07315 (parent)
chain: RLYEREDHKGLMMELSEDCPSIQDRFHLSEIRSLHVLEGCWVLYELPNYRGRQYLLRPQEYRRCQDWGAMDAKAGSLRRV

# Variants of: B1
# assay name: abundance fitness (aPCA) (normalised: wild type 0, dead -1); higher = more abundant; growth selection in yeast, the domain comes from the species named
# condition parameters: Homo sapiens
metric: abundance fitness
The answer should be written as a number, with no unit following it.

- variant string: "Q23K"
  abundance fitness: -0.043

Field abundance fitness (entry `E14R` ) reads -0.397

Field abundance fitness (entry `E4I` ) reads -0.746
